Catalogue of TGI readings, one per entry.
tested on: NCI-H23 lung; assay: NCI tumour cell line growth inhibition, 48 h

// known answers, use as guide
{"compound": "COc1ccc(/C(COc2c(-c3ccccc3)oc3ccccc3c2=O)=N\\O)cc1", "TGI": "> 50 µM"}
{"compound": "C=C1C(=O)O[C@@]23C1CC[C@@H](C)C2CC[C@@]1(C)OC31 (stereo not given in full)", "TGI": "20.6 µM"}
{"compound": "COc1ccc(Nc2nc3c([nH]2)c(=O)n(C)c(=O)n3C)cc1", "TGI": "> 10 µM"}
{"compound": "O=C(Cc1ccccc1)NN1C(=O)/C(=C\\c2ccc([N+](=O)[O-])cc2)SC1=Nc1ccccc1", "TGI": "> 100 µM"}
{"compound": "CC(C)(C)C1C=C(Sc2ccccc2)C(=O)O1 (stereo not given)", "TGI": "> 100 µM"}

Identify the measured TGI of `COC(=O)Cc1c([C@H]2[C@H](CC(=O)OC)c3ccccc3N2C(C)=O)[nH]c2ccccc12` for NCI-H23 lung.
> 100 µM

Identify the measured TGI of CC1(C)OC2[C@@H](CNC(=O)NC(=O)NC(=O)CI)O[C@@H](n3cnc4c(NC(=O)Nc5ccccc5)ncnc43)[C@H]2O1 (stereo not given in full) for NCI-H23 lung.
16.7 µM

Identify the measured TGI of `CC1=CC(=Nc2ccc(N(CCCl)CCCl)cc2)C=C(C)C1=O` for NCI-H23 lung.
4.36 µM

Identify the measured TGI of `O=C(c1ccccc1)c1nnc(C(=O)c2ccccc2)nn1` for NCI-H23 lung.
> 344 µM

Identify the measured TGI of CC1S/C(=N/c2nnc(-c3ccccc3)o2)NC1=O (stereo not given) for NCI-H23 lung.
> 100 µM
